Biological target: human MCH receptor (Homo sapiens, UniProt Q99705)
Sequence (Q99705 whole entry): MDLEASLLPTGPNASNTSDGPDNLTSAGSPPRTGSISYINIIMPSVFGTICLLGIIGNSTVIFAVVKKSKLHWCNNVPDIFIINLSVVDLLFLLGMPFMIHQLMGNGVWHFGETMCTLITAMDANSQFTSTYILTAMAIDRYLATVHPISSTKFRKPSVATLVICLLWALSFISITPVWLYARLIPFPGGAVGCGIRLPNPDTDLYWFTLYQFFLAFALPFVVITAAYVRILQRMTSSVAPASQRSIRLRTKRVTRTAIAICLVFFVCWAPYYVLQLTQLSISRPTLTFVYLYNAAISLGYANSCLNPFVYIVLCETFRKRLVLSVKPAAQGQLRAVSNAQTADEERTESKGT
Experiment: Functional IC50 of MCH1R antagonists: cellular calcium flux (FLIPR) after MCH in recombinant HEK293 cells
Conditions: calcium flux after addition of agonist (MCH), recombinant HEK293 cell line expressing the human MCH receptor
ASSAY_READOUT: pIC50
Remember, pIC50 is on a log scale: it is -log10 of the molar concentration.

{"COMPOUND": "CN1[C@@H]2CC[C@H]1C[C@@H](Oc1ccc(-n3cnc4cc(C(O)C5CCCC5)sc4c3=O)cc1)C2 (stereo partly shown)", "pIC50": 6.12}
{"COMPOUND": "CN1[C@@H]2CC[C@H]1C[C@@H](Oc1ccc(-n3cnc4cc(CCC5CC5)sc4c3=O)cc1)C2", "pIC50": 6.03}
{"COMPOUND": "CCc1cc(-n2cnc3cc(C#CC(O)CC)sc3c2=O)ccc1O[C@H]1C[C@H]2CC[C@@H](C1)N2C (stereo partly shown)", "pIC50": 6.68}

Fill in: pIC50 of CN1[C@@H]2CC[C@H]1C[C@@H](Oc1ccc(-n3cnc4cc(CCC5(O)CCCC5)sc4c3=O)cc1)C2 is ___
5.89

###

Target: human MCH receptor (Homo sapiens)
Construct: expressed in transfected cells
Assay: Functional IC50 of MCH1R antagonists: cellular calcium flux (FLIPR) after MCH in recombinant HEK293 cells
Type: cell-based
Conditions: calcium flux after addition of agonist (MCH), recombinant HEK293 cell line expressing the human MCH receptor
pIC50: −log10 of the molar value.
# binarize pIC50: threshold 6 inclusive, high side MET, low side NOT MET

Field: example entries. Status: answers known.
{"MOLECULE": "CS(=O)(=O)CCN1[C@@H]2CC[C@H]1C[C@@H](Oc1ccc(-n3cnc4cc(C#CC5CC5)sc4c3=O)cc1)C2 [Example 63]", "QUALITATIVE_LABEL": "MET"}
{"MOLECULE": "CC(C)N(C)C(=O)c1cc2ncn(-c3ccc(O[C@H]4C[C@H]5CC[C@@H](C4)N5C)cc3)c(=O)c2s1 [Example 82]", "QUALITATIVE_LABEL": "NOT MET"}
{"MOLECULE": "CN1[C@@H]2CC[C@H]1C[C@@H](Oc1ccc(-n3cnc4cc(CC(O)c5ccco5)sc4c3=O)cc1)C2 (stereo partly shown) [Example 169]", "QUALITATIVE_LABEL": "MET"}
{"MOLECULE": "CN1[C@@H]2CC[C@H]1C[C@@H](Oc1ccc(-n3cnc4cc(C#CC5CC5)sc4c3=O)cc1)C2 [Example 62]", "QUALITATIVE_LABEL": "MET"}
{"MOLECULE": "O=c1c2sc(C#CC3CC3)cc2ncn1-c1ccc(OCCN2CCCC2)c(F)c1 [Example 69]", "QUALITATIVE_LABEL": "MET"}

Then this molecule:
Entry CCC(O)CCc1cc2ncn(-c3ccc(O[C@H]4C[C@H]5CC[C@@H](C4)N5C)c(C)c3)c(=O)c2s1 (stereo partly shown) [Example 27] : is its pIC50 no less than 6?
MET

###

Biological target: human MCH receptor (Homo sapiens, UniProt Q99705)
Assay: Functional IC50 of MCH1R antagonists: cellular calcium flux (FLIPR) after MCH in recombinant HEK293 cells
Details: calcium flux after addition of agonist (MCH), recombinant HEK293 cell line expressing the human MCH receptor
ASSAY_READOUT: log10(IC50) (log10 of the value in nM)
Hello, just confirming the data are log10 of IC50 with units of nM.

Solved entries (count: 5):
{"MOLECULE": "CCC(O)C#Cc1cc2ncn(-c3ccc(OC4C[C@H]5CC[C@@H](C4)N5C)c(CCC(O)CC)c3)c(=O)c2s1 (stereo partly shown)", "log10(IC50)": 3.10}
{"MOLECULE": "CN(C)CCOc1ccc(-n2cnc3cc(COCC4CCC4)sc3c2=O)cc1", "log10(IC50)": 2.97}
{"MOLECULE": "CCC(O)CCc1cc2ncn(-c3ccc(OC4C[C@H]5CC[C@@H](C4)N5C)c(CCCO)c3)c(=O)c2s1 (stereo partly shown)", "log10(IC50)": 3.13}
{"MOLECULE": "CCC(C)(O)CCc1cc2ncn(-c3ccc(O[C@H]4C[C@H]5CC[C@@H](C4)N5C)c(Cl)c3)c(=O)c2s1 (stereo partly shown)", "log10(IC50)": 3.01}
{"MOLECULE": "COc1cc(-n2cnc3cc(C#CC(C)O)sc3c2=O)ccc1O[C@H]1C[C@H]2CC[C@@H](C1)N2C (stereo partly shown)", "log10(IC50)": 2.53}

Fill in: log10(IC50) of CN1[C@@H]2CC[C@H]1C[C@@H](Oc1ccc(-n3cnc4cc(CCc5ccco5)sc4c3=O)cc1)C2 is ___
2.32

Further, for COCCCc1cc2ncn(-c3ccc(O[C@H]4C[C@H]5CC[C@@H](C4)N5C)c(Cl)c3)c(=O)c2s1 ?
2.72

Further, for CN1[C@@H]2CC[C@H]1C[C@@H](Oc1ccc(-n3cnc4cc(CC(O)C5CCC5)sc4c3=O)cc1)C2 (stereo partly shown) ?
3.04

Further, for COCCCc1cc2ncn(-c3ccc(O[C@H]4C[C@H]5CC[C@@H](C4)N5C)c(C)c3)c(=O)c2s1 ?
2.60

Further, for CN1[C@@H]2CC[C@H]1C[C@@H](Oc1ccc(-n3cnc4cc(C(=O)N5CCCCC5)sc4c3=O)cc1)C2 ?
4.11

Further, for Cc1cc(-n2cnc3cc(C#CC(C)O)sc3c2=O)ccc1O[C@H]1C[C@H]2CC[C@@H](C1)N2C (stereo partly shown) ?
2.08

Further, for COc1cc(-n2cnc3cc(C#CC4CC4)sc3c2=O)ccc1OCCN1CCCC1 ?
2.04

Further, for CN1[C@@H]2CC[C@H]1C[C@@H](Oc1ccc(-n3cnc4cc(C(O)CC(C)(C)C)sc4c3=O)cc1)C2 (stereo partly shown) ?
3.35

Further, for CCCCC(=O)c1cc2ncn(-c3ccc(O[C@H]4C[C@H]5CC[C@@H](C4)N5C)cc3)c(=O)c2s1 ?
3.27

Further, for CN1[C@@H]2CC[C@H]1CC(Oc1ccc(-n3cnc4cc(N5C[C@H]6CCCN6C5=O)sc4c3=O)cc1)C2 (stereo partly shown) ?
3.98

###

Biological target: human MCH receptor (Homo sapiens)
Assay: Functional IC50 of MCH1R antagonists: cellular calcium flux (FLIPR) after MCH in recombinant HEK293 cells
Settings: calcium flux after addition of agonist (MCH), recombinant HEK293 cell line expressing the human MCH receptor
ASSAY_READOUT: pIC50
Remember, pIC50 is on a log scale: it is -log10 of the molar concentration.

Solved entries (count: 2):
{"COMPOUND": "CCCCC(O)c1cc2ncn(-c3ccc(O[C@H]4C[C@H]5CC[C@@H](C4)N5C)cc3)c(=O)c2s1 (stereo partly shown)", "pIC50": 6.00}
{"COMPOUND": "COC(C)(C)C#Cc1cc2ncn(-c3ccc(O[C@H]4C[C@H]5CC[C@@H](C4)N5C)cc3)c(=O)c2s1", "pIC50": 6.08}

Fill in: pIC50 of CC(O)C#Cc1cc2ncn(-c3ccc(O[C@H]4C[C@H]5CC[C@@H](C4)N5C)cc3)c(=O)c2s1 (stereo partly shown) is ___
6.62

Further, for CN1[C@@H]2CC[C@H]1CC(Oc1ccc(-n3cnc4cc(C5=CCOCC5)sc4c3=O)cc1)C2 (stereo partly shown) ?
5.59
